Data provenance is the supplement of paper PMC9023506.

Test system: Danio rerio larvae (5 dpf)
Test: startle response to 20-s acoustic pulses, difference vs DMSO (percentage points (treated minus DMSO)); higher = more of the behaviour than the DMSO vehicle control
Conditions: 10 µM; exposure time: 3 h pre-incubation + 3 h imaging
Structures can show the parent of a compound that is named as a salt.
Rule: startle response to 20-s acoustic pulses under 2 gives no (0), otherwise yes (1).

As a guide, the following entries are already answered.
O=c1[nH]c2ccccc2n1C1CCN(CCCC(c2ccc(F)cc2)c2ccc(F)cc2)CC1 [Pimozide]
yes (1)
C=C1C[C@@H]2[C@H](CC[C@]3(C)C(=O)CC[C@@H]23)[C@@]2(C)C=CC(=O)C=C12
yes (1)
N[C@@H]1C[C@H]1c1ccccc1 [Tranylcypromine hydrochloride]
no (0)
COc1ccc(C(CN(C)C)C2(O)CCCCC2)cc1 (stereo not drawn) [Venlafaxine hydrochloride]
no (0)
CC(C)C[C@H]1C(=O)N2CCC[C@H]2[C@]2(O)O[C@](NC(=O)[C@@H]3C=C4c5cccc6[nH]c(Br)c(c56)C[C@H]4N(C)C3)(C(C)C)C(=O)N12 [Bromocriptine mesylate]
no (0)

// query Kindly determine if startle response to 20-s acoustic pulses recorded for CC[C@@H](C(N)=O)N1CCCC1=O is above or exactly 2.
// result no (0)

// query Kindly determine if startle response to 20-s acoustic pulses recorded for CN1C[C@H](C(=O)N[C@]2(C)O[C@@]3(O)[C@@H]4CCCN4C(=O)[C@H](Cc4ccccc4)N3C2=O)C[C@@H]2c3cccc4[nH]cc(c34)C[C@H]21 [Dihydroergotamine mesylate] is above or exactly 2.
// result yes (1)

// query Kindly determine if startle response to 20-s acoustic pulses recorded for C=CCN1C[C@H](C(=O)N(CCCN(C)C)C(=O)NCC)C[C@@H]2c3cccc4[nH]cc(c34)C[C@H]21 is above or exactly 2.
// result no (0)
